tested on: U2OS; assay: Incucyte cell viability with U2OS; assay type: toxicity, cell-based; details: human, 0 h, 10 µM, compound concentration 10 uM, replicate number 2; also: unitless GR value; below 1 slowed growth and below 0 cell loss
Readout kind: Growth Rate
Answer with a bare number; do not write a unit.

Below, 10 molecules whose answers are already recorded.
O=C(NNC(=O)c1ccc(CNS(=O)(=O)c2ccc(F)c(Cl)c2)cc1)c1ccccc1 = 0.85
CC[C@@H](CO)Nc1nc(Nc2cccc(NC(=O)C(C)(C)C)c2)ncc1F = 0.94
CCOC(=O)N1CCC(c2cc(O)n3nc(C)c(-c4ccc(F)cc4)c3n2)CC1 = 0.63
CC(C)(C)c1cnc(CSc2cnc(NC(=O)C3CCN(CC(=O)NCCOCCOCCOCCNc4cccc5c4C(=O)N(C4CCC(=O)NC4=O)C5=O)CC3)s2)o1 (centres undefined) = 0.98
CN1CCN(c2ccc(-n3cc(-c4ccncc4OCC4CCNCC4)cn3)cc2)CC1 = 0.97
CCCOc1cnc(CN/C=C2\C(=O)NC(=O)c3ccc(I)cc32)cc1O = -1
CNc1nc(-c2cc(C(=O)N3CCN(Cc4ccc(Cl)cc4)CC3)c(Cl)cn2)cs1 = -0.41
CCN1CCN(Cc2ccc(NC(=O)c3ccc(C)c(NC(=O)c4cncc(-c5cccs5)c4)c3)cc2C(F)(F)F)CC1 = -0.23
CC(=O)Oc1ccc2c(c1)[C@@]1(C)CCC[C@](C)(C(=O)OC(=O)[C@@]3(C)CCC[C@]4(C)c5cc(OC(C)=O)ccc5CC[C@@H]34)[C@@H]1CC2 [ACETYL PODOCARPIC ACID ANHYDRIDE] = 0.76
NC(=O)C1CCCc2c1[nH]c1ccc(Cl)cc21 (centres undefined) = 0.68

Prompt: I have this molecule here, CC(C)(c1ccc(OCc2cccc(COc3ccc(C(=N)N)cc3)c2)cc1)c1ccc(O[C@@H]2O[C@H](C(=O)O)[C@@H](O)[C@H](O)[C@H]2O)cc1.O=C(O)C(F)(F)F , and I need its recorded Growth Rate.
Response: -0.17

Prompt: What do you have for CCCCC(C)(O)C/C=C/[C@H]1[C@H](O)CC(=O)[C@@H]1CCCCCCC(=O)O (some centres undefined) ?
Response: 0.49

Prompt: How about CN(C)Cc1cccc(NC(=C2C(=O)Nc3cc(C(N)=O)ccc32)c2ccccc2)c1 ?
Response: -0.78

Prompt: Another molecule to check: COc1ccc2c(O[C@@H]3C[C@H]4C(=O)N[C@]5(C(=O)NS(=O)(=O)C6(C)CC6)CC5/C=C\CCCCC[C@H](NC(=O)c5ccn(C)n5)C(=O)N4C3)cc(OC(C)C)nc2c1C (some centres undefined)
Response: -0.46

Prompt: CCOC(=O)c1ncn2c1[C@@H]1CCCN1C(=O)c1cc(OC)ccc1-2 ?
Response: -0.82

Prompt: Try CC[C@@]1(c2ccccc2)NC(=O)N(Cc2ccccc2)C1=O next.
Response: -0.81

Prompt: O=C(CCCN1CCC(O)(c2ccc(Cl)cc2)CC1)c1ccc(F)cc1 ?
Response: 0.79

* * *

test system: U2OS; experiment: Incucyte cell viability with U2OS; type: toxicity, cell-based; conditions: human, 0 h, 10 µM, compound concentration 10 uM, replicate number 2; also: unitless GR value; below 1 slowed growth and below 0 cell loss
List of Growth Rate values.
# output: bare number, no unit

CCCCc1c(-c2ccccc2)nc(N)nc1-c1ccc(OCc2ccccc2)c(F)c1F = -0.86
O=C(Nc1ccc(-n2nc(C(F)(F)F)cc2C(F)(F)F)cc1)c1ccncc1F = -1
COc1cnccc1Nc1nc(-c2nn(Cc3c(F)cc(OCCO)cc3F)c3ccccc23)ncc1OC = -0.09

Prompt: Param item = Cc1cc(C)nc(Nc2ncc(C(=O)NCCc3c(C)[nH]c4ccccc34)cn2)c1.Cl ; retrieve measured Growth Rate.
Response: 0.92

Prompt: Consider next the compound CC(C)Oc1ccc(F)c(-c2cnc(N)c(C(=O)Nc3cnccc3N3CCC[C@@H](C(=O)O)C3)n2)c1 in the same way.
Response: -0.44

Prompt: Now the compound Cc1onc(O)c1CC(N)C(=O)O [(R,S)-AMPA]
Response: -0.98

Prompt: Next up: CCOc1ccc(S(=O)(=O)Nc2ccc(Cl)cc2C#Cc2cnc(C(=O)[O-])cc2OC)c2ncccc12.[K+]
Response: 0.5

Prompt: Param item: Cl.NCC(O)c1ccc(O)cc1 (stereo not drawn) [OCTOPAMINE HYDROCHLORIDE]
Response: -0.87

Prompt: Subsequent entry: O=C(Nc1ccc(Oc2ccc(Cl)cc2)c(Cl)c1)c1cc(I)cc(I)c1O [RAFOXANIDE]
Response: -1

Prompt: How about COc1ccc([C@@H]2Sc3ccccc3N(CCN(C)C)C(=O)[C@@H]2OC(C)=O)cc1.Cl [DILTIAZEM HYDROCHLORIDE] ?
Response: -0.41

Prompt: Another compound: C[C@H](CCC(=O)O)[C@H]1CC[C@H]2[C@@H]3CC[C@@H]4C[C@H](O)CC[C@]4(C)[C@H]3C[C@H](O)[C@]12C
Response: 0.84

Prompt: What do we get for O=C(NCc1cccnc1OCC(F)(F)F)c1cncc(-c2ccc(Cl)cc2)c1 ?
Response: -0.65

Prompt: Now this one: CC(=O)Nc1nc2c(Oc3cc(-c4ccc(C(F)(F)F)cc4)ncn3)cccc2s1
Response: -0.37

* * *

test system: U2OS; test: Incucyte cell viability with U2OS; type: toxicity, cell-based; conditions: human, 12 h, 10 µM, compound concentration 10 uM, replicate number 2; also: unitless GR value; below 1 slowed growth and below 0 cell loss
Readout kind: Growth Rate
# print the numeric value only

C=C1/C(=C\C=C2/CCC[C@]3(C)[C@@H]([C@H](C)CCCC(C)(C)O)CC[C@@H]23)C[C@@H](O)C[C@@H]1O [CALCITRIOL] = 0.63
O=C(Nc1cc(-c2cn[nH]c2)ccc1N1CCOCC1)c1ccc(-c2ccc3ncccc3c2)o1 = 0.75
Cn1c(SCc2ccc(C(C)(C)C)cc2)nc(N)cc1=O = 0.66
CCC(C)(C)NC(=NC#N)Nc1cccnc1 = 0.85
CCOC(=O)C1=C(C)NC(C)=C(C(=O)OC)C1c1cccc([N+](=O)[O-])c1 (configuration not stated) [NITRENDIPINE] = 0.71
CCN1C(=O)N(c2c(F)c(OC)cc(OC)c2F)Cc2cnc3[nH]c(CN4CCOCC4)cc3c21 [PEMIGATINIB] = 0.07
CS(=O)(=O)NC(=O)CCC/C=C\C[C@H]1C(=O)C[C@@H](O)[C@@H]1/C=C/[C@@H](O)COc1ccccc1 [SULPROSTONE] = 0.91
CCc1ccc(-c2ncn(CC3(F)CCN(C)CC3)c2-c2ccnc3[nH]ccc23)nc1 = 0.69

Prompt: What Growth Rate value was documented for this molecule, CN(C)Cc1cccc(NC(=C2C(=O)Nc3cc(C(=O)N(C)C)ccc32)c2ccccc2)c1 ?
Response: 0.73

Prompt: Also, CCc1ccccc1C(=O)Nc1n[nH]c2c(C)c(F)c(C3C(C#N)=C(C)N(C)C(C)=C3C#N)cc12 [BAY-3827] please.
Response: 0.66

Prompt: What do you get for CC(C)[C@@H]1CC[C@@H](C)C[C@@H]1P(=O)(c1ccccc1)c1ccccc1 ?
Response: 0.96

Prompt: Another molecule to check: COC[C@@H](CC(C)C)NC1=N/C(=C\c2ccc3ncsc3c2)C(=O)N1C
Response: 0.64

Prompt: Next record, please: Fc1ccc(-c2c3cccc(C(F)(F)F)c3nn2Cc2ccc(F)cc2Cl)cc1 [LXR-623]
Response: 0.95

Prompt: Try this molecule too: CN1CCN(c2nc(N)c3ccccc3n2)CC1
Response: 0.53

Prompt: Subsequent entry: COc1ccc(-n2c(C)c([N+](=O)[O-])c3ccc(O)cc32)cc1
Response: 0.65

Prompt: Also need CC1(C)Oc2ncnc(N)c2N=C1c1ccc([C@H]2CC[C@H](CC(=O)O)CC2)cc1 , thanks.
Response: 0.89

* * *

test system: HEK-293T; test: Incucyte cell viability with HEK293T; type: toxicity, cell-based; details: human, 24 h, 10 µM, compound concentration 10 uM, replicate number 2; also: unitless GR value; below 1 slowed growth and below 0 cell loss
// Growth Rate lookup, one value per entry
Simply state the number, no unit and no words.

Here is how some compounds turned out for Growth Rate.
O=C1NC(NC23CC4CC(CC(C4)C2)C3)=N/C1=C\c1ccc2ncsc2c1 = 0.05
Cc1ccc(NC(=O)c2ccc3cnccc3c2)cc1C(=O)Nc1cnc(Nc2cccc(NC3CCN(C(=O)/C=C/CN(C)C)CC3)c2)nc1 = -0.39
N=C(N)NCCC[C@@H](NC(=O)C(c1ccccc1)c1ccccc1)C(=O)NCc1ccc(CNC(N)=O)cc1.O=C(O)C(F)(F)F = 0.9
CN1C(=O)c2ccccc2N(C)c2nc(Nc3cnn(C4CCNCC4)c3)ncc21 = 0.07
Nc1ccc(-c2cnc(N)c(-c3ccc(Cl)cc3)c2)cn1 = 0.78
C[C@@H](C(N)=O)[C@H](N)c1nc2cc(C(C)(C)C)ccc2[nH]1 [PF-06305591] = 0.94

Prompt: // Growth Rate lookup, key: CCN(C(=O)c1cc(F)ccc1Oc1cncnc1N1CC2(CCN(C[C@H]3CC[C@H](NS(=O)(=O)CC)CC3)CC2)C1)C(C)C [REVUMENIB]
Response: 0.38

Prompt: // next record Cn1nc(-c2ccc(C(N)=O)cc2)c2ccccc2c1=O
Response: 0.74

Prompt: Another compound: O=C1NC(=NCc2cccs2)SC1=Cc1ccc2ncccc2c1
Response: 0.54

FYI, the data here is from ChEMBL document CHEMBL5303304.
